- assay_system: Potassium voltage-gated channel subfamily KQT member 2 (Rattus norvegicus)
- experiment: KCNQ2 channel current inhibitors, SAR follow-up, orthogonal assay for KCNQ2 inhibitor project, automated electrophysiology, CHO cells, CRC2 (AID 588426)
- reported_conditions: KCNQ2-CHO automated patch clamp current
recorded_endpoint: IC50

Check out these entries, answers already filled in.
compound | IC50
CCC(C(=O)Nc1ccccc1N1CCCC1)c1ccccc1 (stereo not given) | 160 nM
C[C@H](C(=O)Nc1ccccc1N1CCCC1)c1ccccc1 | 590 nM
CC[C@@H](C(=O)Nc1ccc(N2CCCC2)cc1)c1ccccc1 | 360 nM
CCC(C(=O)Nc1ccccc1N1CCCC1)c1ccc(F)cc1 (stereo not given) | 130 nM
CCC(C(=O)Nc1ccccc1N1CCOCC1)c1ccccc1 (stereo not given) | 12700 nM

O=C(Cc1ccc(Cl)cc1)Nc1ccccc1N1CCCC1 yielded IC50 of 800 nM

Value source: PubChem BioAssay AID588426
